# credit: the supplement of paper PMC10307832

// relative viability lookup, one value per entry
# Test system: NCI-H1975
# Method Summary: relative viability (nuclei count vs DMSO), 5 days (fraction); higher = more cells survive
# Condition Label: first compound 0.08 µM
Quantity: relative viability

compound="COc1nc(C)cnc1NS(=O)(=O)c1cccnc1-c1ccc(-c2nnco2)cc1 [Zibotentan] + CCNC(=O)c1noc(-c2cc(C(C)C)c(O)cc2O)c1-c1ccc(CN2CCOCC2)cc1 [Luminespib] (partner 0.01 µM)" subject_of_test=NCI-H1975 observed_result=0.305
compound="COc1nc(C)cnc1NS(=O)(=O)c1cccnc1-c1ccc(-c2nnco2)cc1 [Zibotentan] + Nc1nc2[nH]cc(CCc3ccc(C(=O)N[C@@H](CCC(=O)O)C(=O)O)cc3)c2c(=O)[nH]1 [Pemetrexed] (partner 0.2 µM)" subject_of_test=NCI-H1975 observed_result=0.308
compound="O=c1cc(-c2cccc3c2Sc2ccccc2S3)oc(N2CCOCC2)c1 + N=C(N)NC(=N)NCCc1ccccc1 [Phenformin] (partner 250 µM)" subject_of_test=NCI-H1975 observed_result=0.42
compound="COc1nc(C)cnc1NS(=O)(=O)c1cccnc1-c1ccc(-c2nnco2)cc1 [Zibotentan] + NC(=O)Nc1cc(-c2cccc(F)c2)sc1C(=O)N[C@H]1CCCNC1 [AZD7762] (partner 0.2 µM)" subject_of_test=NCI-H1975 observed_result=0.767
compound="O=c1cc(-c2cccc3c2Sc2ccccc2S3)oc(N2CCOCC2)c1 + CC(=O)Nc1cccc(-n2c(=O)n(C3CC3)c(=O)c3c(Nc4ccc(I)cc4F)n(C)c(=O)c(C)c32)c1 [Trametinib] (partner 0.02 µM)" subject_of_test=NCI-H1975 observed_result=0.323
compound="O=c1cc(-c2cccc3c2Sc2ccccc2S3)oc(N2CCOCC2)c1 + CC1(C)CCC(c2ccc(Cl)cc2)=C(CN2CCN(c3ccc(C(=O)NS(=O)(=O)c4ccc(N[C@H](CCN5CCOCC5)CSc5ccccc5)c(S(=O)(=O)C(F)(F)F)c4)cc3)CC2)C1 [Navitoclax] (partner 0.5 µM)" subject_of_test=NCI-H1975 observed_result=1.2
compound="O=c1cc(-c2cccc3c2Sc2ccccc2S3)oc(N2CCOCC2)c1 + COc1cc2c(Oc3ccc(NC(=O)C4(C(=O)Nc5ccc(F)cc5)CC4)cc3F)ccnc2cc1OCCCN1CCOCC1 [Foretinib] (partner 0.25 µM)" subject_of_test=NCI-H1975 observed_result=0.966

* * *

// relative viability lookup, one value per entry
# Tested on: NCI-H358
# Method Summary: relative viability (nuclei count vs DMSO), 5 days (fraction); higher = more cells survive
# Condition Label: first compound 6.325 µM
Quantity: relative viability

compound="COCC1(CO)C(=O)C2CCN1CC2 (centres undefined) [PRIMA-1MET] + CS(=O)(=O)N1CCN(Cc2cc3nc(-c4cccc5[nH]ncc45)nc(N4CCOCC4)c3s2)CC1 [Pictilisib] (partner 1 µM)" subject_of_test=NCI-H358 observed_result=0.319
compound="COCC1(CO)C(=O)C2CCN1CC2 (centres undefined) [PRIMA-1MET] + Cc1cc(Nc2cc(N3CCN(C)CC3)nc(Sc3ccc(NC(=O)C4CC4)cc3)n2)n[nH]1 [Tozasertib] (partner 0.1 µM)" subject_of_test=NCI-H358 observed_result=0.117
compound="COCC1(CO)C(=O)C2CCN1CC2 (centres undefined) [PRIMA-1MET] + C[C@@H](Oc1cc(-c2cnn(C3CCNCC3)c2)cnc1N)c1c(Cl)ccc(F)c1Cl [Crizotinib] (partner 1 µM)" subject_of_test=NCI-H358 observed_result=0.526
compound="COCC1(CO)C(=O)C2CCN1CC2 (centres undefined) [PRIMA-1MET] + CC(=O)c1c(C)c2cnc(Nc3ccc(N4CCNCC4)cn3)nc2n(C2CCCC2)c1=O [Palbociclib] (partner 0.5 µM)" subject_of_test=NCI-H358 observed_result=0.137

* * *

# Test system: COR-L 105
# Method Summary: relative viability (nuclei count vs DMSO), 5 days (fraction); higher = more cells survive
# Condition Label: first compound 0.03162 µM
Quantity: relative viability

compound="O=c1cc(N2CCOCC2)oc2c(-c3cccc4c3sc3ccccc34)cccc12 + C[C@@H](Oc1cc(-c2cnn(C3CCNCC3)c2)cnc1N)c1c(Cl)ccc(F)c1Cl [Crizotinib] (partner 1 µM)" quantity="relative viability" observed_result=0.649
compound="O=c1cc(N2CCOCC2)oc2c(-c3cccc4c3sc3ccccc34)cccc12 + Cc1nc(NC(=O)N2CCC[C@H]2C(N)=O)sc1-c1ccnc(C(C)(C)C(F)(F)F)c1 [Alpelisib] (partner 2 µM)" quantity="relative viability" observed_result=0.933
compound="O=c1cc(N2CCOCC2)oc2c(-c3cccc4c3sc3ccccc34)cccc12 + N=C(N)NC(=N)NCCc1ccccc1 [Phenformin] (partner 250 µM)" quantity="relative viability" observed_result=0.497

* * *

// relative viability lookup, one value per entry
# Tested on: HCC-15
# Method Summary: relative viability (nuclei count vs DMSO), 5 days (fraction); higher = more cells survive
# Condition Label: first compound 0.2 µM
Quantity: relative viability

molecule="COCC1(CO)C(=O)C2CCN1CC2 (stereo not drawn) [PRIMA-1MET] + Cc1nc(NC(=O)N2CCC[C@H]2C(N)=O)sc1-c1ccnc(C(C)(C)C(F)(F)F)c1 [Alpelisib] (partner 2 µM)" quantity="relative viability" observed_result=1.01
molecule="COCC1(CO)C(=O)C2CCN1CC2 (stereo not drawn) [PRIMA-1MET] + C[C@]1(O)C[C@@H](c2nc(-c3ccc4ccc(-c5ccccc5)nc4c3)c3c(N)nccn32)C1 [Linsitinib] (partner 1 µM)" quantity="relative viability" observed_result=0.893
molecule="COCC1(CO)C(=O)C2CCN1CC2 (stereo not drawn) [PRIMA-1MET] + CCNC(=O)c1noc(-c2cc(C(C)C)c(O)cc2O)c1-c1ccc(CN2CCOCC2)cc1 [Luminespib] (partner 0.01 µM)" quantity="relative viability" observed_result=0.264
molecule="COCC1(CO)C(=O)C2CCN1CC2 (stereo not drawn) [PRIMA-1MET] + CC(C)C[C@H](NC(=O)[C@H](Cc1ccccc1)NC(=O)c1cnccn1)B(O)O [Bortezomib] (partner 0.002 µM)" quantity="relative viability" observed_result=1.02
molecule="COCC1(CO)C(=O)C2CCN1CC2 (stereo not drawn) [PRIMA-1MET] + CC1(C)CCC(c2ccc(Cl)cc2)=C(CN2CCN(c3ccc(C(=O)NS(=O)(=O)c4ccc(N[C@H](CCN5CCOCC5)CSc5ccccc5)c(S(=O)(=O)C(F)(F)F)c4)cc3)CC2)C1 [Navitoclax] (partner 0.5 µM)" quantity="relative viability" observed_result=0.772
molecule="COCC1(CO)C(=O)C2CCN1CC2 (stereo not drawn) [PRIMA-1MET] + CS(=O)(=O)CCNCc1ccc(-c2ccc3ncnc(Nc4ccc(OCc5cccc(F)c5)c(Cl)c4)c3c2)o1 [Lapatinib] (partner 2 µM)" quantity="relative viability" observed_result=0.811
molecule="COCC1(CO)C(=O)C2CCN1CC2 (stereo not drawn) [PRIMA-1MET] + COc1cccc2cc(-c3nc([C@H]4CC[C@H](C(=O)O)CC4)n4ncnc(N)c34)[nH]c12 [OSI-027] (partner 0.5 µM)" quantity="relative viability" observed_result=0.534
molecule="COCC1(CO)C(=O)C2CCN1CC2 (stereo not drawn) [PRIMA-1MET] + Cc1cc(Nc2cc(N3CCN(C)CC3)nc(Sc3ccc(NC(=O)C4CC4)cc3)n2)n[nH]1 [Tozasertib] (partner 0.1 µM)" quantity="relative viability" observed_result=0.431

* * *

# Test system: NCI-H2087
# Method Summary: relative viability (nuclei count vs DMSO), 5 days (fraction); higher = more cells survive
# Condition Label: first compound 2.53 µM
Quantity: relative viability

molecule="COc1nc(C)cnc1NS(=O)(=O)c1cccnc1-c1ccc(-c2nnco2)cc1 [Zibotentan] + CC(=O)Nc1cccc(-n2c(=O)n(C3CC3)c(=O)c3c(Nc4ccc(I)cc4F)n(C)c(=O)c(C)c32)c1 [Trametinib] (partner 0.02 µM)" quantity="relative viability" observed_result=0.208
molecule="COc1nc(C)cnc1NS(=O)(=O)c1cccnc1-c1ccc(-c2nnco2)cc1 [Zibotentan] + C[C@]1(O)C[C@@H](c2nc(-c3ccc4ccc(-c5ccccc5)nc4c3)c3c(N)nccn32)C1 [Linsitinib] (partner 1 µM)" quantity="relative viability" observed_result=0.914
molecule="O=c1cc(-c2cccc3c2Sc2ccccc2S3)oc(N2CCOCC2)c1 + CC(C)C[C@H](NC(=O)[C@H](Cc1ccccc1)NC(=O)c1cnccn1)B(O)O [Bortezomib] (partner 0.002 µM)" quantity="relative viability" observed_result=0.792

* * *

// relative viability lookup, one value per entry
# Test system: LOU-NH91
# Method Summary: relative viability (nuclei count vs DMSO), 5 days (fraction); higher = more cells survive
# Condition Label: first compound 2.53 µM
Quantity: relative viability

molecule="O=c1cc(-c2cccc3c2Sc2ccccc2S3)oc(N2CCOCC2)c1 + CS(=O)(=O)N1CCN(Cc2cc3nc(-c4cccc5[nH]ncc45)nc(N4CCOCC4)c3s2)CC1 [Pictilisib] (partner 1 µM)" observed_result=0.504
molecule="COc1nc(C)cnc1NS(=O)(=O)c1cccnc1-c1ccc(-c2nnco2)cc1 [Zibotentan] + C[C@]1(O)C[C@@H](c2nc(-c3ccc4ccc(-c5ccccc5)nc4c3)c3c(N)nccn32)C1 [Linsitinib] (partner 1 µM)" observed_result=1.02
molecule="O=c1cc(-c2cccc3c2Sc2ccccc2S3)oc(N2CCOCC2)c1 + O=C(c1cc(Cc2n[nH]c(=O)c3ccccc23)ccc1F)N1CCN(C(=O)C2CC2)CC1 [Olaparib] (partner 8 µM)" observed_result=0.863
molecule="O=c1cc(-c2cccc3c2Sc2ccccc2S3)oc(N2CCOCC2)c1 + COc1cccc2cc(-c3nc([C@H]4CC[C@H](C(=O)O)CC4)n4ncnc(N)c34)[nH]c12 [OSI-027] (partner 0.5 µM)" observed_result=0.628
molecule="COc1nc(C)cnc1NS(=O)(=O)c1cccnc1-c1ccc(-c2nnco2)cc1 [Zibotentan] + CC(C)C[C@H](NC(=O)[C@H](Cc1ccccc1)NC(=O)c1cnccn1)B(O)O [Bortezomib] (partner 0.002 µM)" observed_result=0.815
molecule="O=c1cc(-c2cccc3c2Sc2ccccc2S3)oc(N2CCOCC2)c1 + COc1cc2c(Oc3ccc(NC(=O)C4(C(=O)Nc5ccc(F)cc5)CC4)cc3F)ccnc2cc1OCCCN1CCOCC1 [Foretinib] (partner 0.25 µM)" observed_result=0.838
molecule="O=c1cc(-c2cccc3c2Sc2ccccc2S3)oc(N2CCOCC2)c1 + CC(=O)Nc1cccc(-n2c(=O)n(C3CC3)c(=O)c3c(Nc4ccc(I)cc4F)n(C)c(=O)c(C)c32)c1 [Trametinib] (partner 0.02 µM)" observed_result=0.719
molecule="COc1nc(C)cnc1NS(=O)(=O)c1cccnc1-c1ccc(-c2nnco2)cc1 [Zibotentan] + O=C(c1cc(Cc2n[nH]c(=O)c3ccccc23)ccc1F)N1CCN(C(=O)C2CC2)CC1 [Olaparib] (partner 8 µM)" observed_result=0.947
molecule="O=c1cc(-c2cccc3c2Sc2ccccc2S3)oc(N2CCOCC2)c1 + CC(C)C[C@H](NC(=O)[C@H](Cc1ccccc1)NC(=O)c1cnccn1)B(O)O [Bortezomib] (partner 0.002 µM)" observed_result=0.489
molecule="O=c1cc(-c2cccc3c2Sc2ccccc2S3)oc(N2CCOCC2)c1 + NC(=O)Nc1cc(-c2cccc(F)c2)sc1C(=O)N[C@H]1CCCNC1 [AZD7762] (partner 0.2 µM)" observed_result=0.714
